# System: H1299 human lung adenocarcinoma (p53 null) cells
# protocol.details: cell proliferation assay, H1299
# Type: cell-based
# conditions: Table 3 summary of most active compounds, listed as L-lyxose
property.label: IC50 (µM)
The answer is to be given in µM; state only the numeric part.

Query string: Tell me its IC50 given CON(C(C)CC(c1ccccc1)c1c(O)c2ccccc2oc1=O)C1OCC(O)C(O)C1O (mixture of isomers) as the entry.
Result string: 30

====

# Test system: SKOV-3 human ovarian adenocarcinoma cells
# protocol.details: cell proliferation assay, SKOV-3
# Assay type: cell-based
# conditions: Table 3 summary of most active compounds, listed as D-xylose, read-out: SKOV3 Ovarian
property.label: pIC50
// pIC50 is dimensionless: -log10 of concentration (M)

Query string: Tell me its pIC50 given CON(C(C)CC(c1ccccc1)c1c(O)c2ccccc2oc1=O)C1OCC(O)C(O)C1O (mixture of isomers) as the entry.
Result string: 4.28

====

# System: HCT-15 human colorectal adenocarcinoma cells
# protocol.details: cell proliferation assay, HCT-15
# Type: cell-based
# conditions: Table 3 summary of most active compounds; IC50; listed as D-lyxose; read-out: HCT15 Colorectal
property.label: IC50 (µM)
The answer is to be given in µM; state only the numeric part.

Query string: Tell me its IC50 given CON(C(C)CC(c1ccccc1)c1c(O)c2ccccc2oc1=O)C1OCC(O)C(O)C1O (mixture of isomers) [WARF Analog 6] as the entry.
Result string: 7

====

# Tested on: SKOV-3 human ovarian adenocarcinoma cells
# protocol.details: cell proliferation assay, SKOV-3
# Format: cell-based
# conditions: Table 3 summary of most active compounds, listed as L-arabinose, read-out: SKOV3 Ovarian
property.label: pIC50
// pIC50 is dimensionless: -log10 of concentration (M)

Query string: State recorded pIC50 with SKOV-3 human ovarian adenocarcinoma cells, entry CON(C(C)CC(c1ccccc1)c1c(O)c2ccccc2oc1=O)C1OCC(O)C(O)C1O (mixture of isomers) [WARF Analog 15] , no comment.
Result string: 4.12

====

# Test system: SKOV-3 human ovarian adenocarcinoma cells
# protocol.details: cell proliferation assay, SKOV-3
# Assay type: cell-based
# conditions: Table 3 summary of most active compounds, listed as L-lyxose, read-out: SKOV3 Ovarian
property.label: pIC50
// pIC50 is dimensionless: -log10 of concentration (M)

Query string: Tell me its pIC50 given CON(C(C)CC(c1ccccc1)c1c(O)c2ccccc2oc1=O)C1OCC(O)C(O)C1O (mixture of isomers) [WARF Analog 23] as the entry.
Result string: 4.22

====

# System: NCI/ADR-RES
# protocol.details: cell proliferation assay, NCI/ADR-RES
# Format: cell-based
# conditions: Table 3 summary of most active compounds, listed as L-lyxose
property.label: IC50 (µM)
The answer is to be given in µM; state only the numeric part.

Query string: Tell me its IC50 given CON(C(C)CC(c1ccccc1)c1c(O)c2ccccc2oc1=O)C1OCC(O)C(O)C1O (mixture of isomers) as the entry.
Result string: 56

====

# Test system: HCT-15 human colorectal adenocarcinoma cells
# protocol.details: cell proliferation assay, HCT-15
# Type: cell-based
# conditions: Table 3 summary of most active compounds; IC50; listed as D-xylose; read-out: HCT15 Colorectal
property.label: IC50
Quote the value and follow it with the unit of measurement.

Query string: State recorded IC50 with HCT-15 human colorectal adenocarcinoma cells, entry CON(C(C)CC(c1ccccc1)c1c(O)c2ccccc2oc1=O)C1OCC(O)C(O)C1O (mixture of isomers) [WARF Analog 9] , no comment.
Result string: 11 µM
